Molecular target: HBsAg clinical mutation M133L (Hepatitis B virus)
Test: sandwich ELISA, captured mutant HBsAg from culture supernatant;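 further: Anti-HBsAg antibodies tested for binding to mutant HBsAg secreted by stably transfected cell lines, supernatant incubated 1 h on antibody-coated plates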
observable: IC50 (nM)
Could you give me the number in nM? Just the number is fine.

Entry under review: NOV3540 (antibody, human IgG1, kappa, V domains shown, Full human IgG1 (kappa) expressed in CHO cells) VH: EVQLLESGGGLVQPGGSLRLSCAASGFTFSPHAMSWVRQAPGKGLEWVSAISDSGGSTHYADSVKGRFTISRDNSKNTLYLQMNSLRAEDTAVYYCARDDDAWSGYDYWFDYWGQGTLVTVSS VL: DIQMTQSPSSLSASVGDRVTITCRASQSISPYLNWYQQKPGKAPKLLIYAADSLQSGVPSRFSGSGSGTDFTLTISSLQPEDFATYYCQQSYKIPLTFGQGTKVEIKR . Reported IC50?
0.091
